- ASSAY_SYSTEM: 3',5'-cyclic-AMP phosphodiesterase 4B (Homo sapiens, UniProt Q07343)
- Sequence (Q07343 whole entry): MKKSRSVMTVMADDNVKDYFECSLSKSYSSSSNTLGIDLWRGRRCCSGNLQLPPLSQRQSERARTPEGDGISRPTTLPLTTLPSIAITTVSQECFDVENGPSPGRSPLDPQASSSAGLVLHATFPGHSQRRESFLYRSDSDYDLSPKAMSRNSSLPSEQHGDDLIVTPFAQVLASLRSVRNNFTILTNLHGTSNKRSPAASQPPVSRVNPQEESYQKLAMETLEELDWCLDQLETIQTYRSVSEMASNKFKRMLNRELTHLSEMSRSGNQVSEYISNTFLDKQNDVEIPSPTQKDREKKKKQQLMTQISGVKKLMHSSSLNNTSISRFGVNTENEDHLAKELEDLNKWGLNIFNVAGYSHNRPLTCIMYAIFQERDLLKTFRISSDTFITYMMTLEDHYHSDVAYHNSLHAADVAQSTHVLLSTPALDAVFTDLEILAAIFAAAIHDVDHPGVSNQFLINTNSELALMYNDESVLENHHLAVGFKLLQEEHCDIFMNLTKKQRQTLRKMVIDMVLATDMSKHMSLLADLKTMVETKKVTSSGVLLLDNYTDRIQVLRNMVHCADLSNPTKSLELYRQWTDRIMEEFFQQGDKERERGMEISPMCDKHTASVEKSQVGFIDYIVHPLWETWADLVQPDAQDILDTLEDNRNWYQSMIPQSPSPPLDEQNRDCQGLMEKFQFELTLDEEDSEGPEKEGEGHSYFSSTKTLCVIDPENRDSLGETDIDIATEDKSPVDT
- ASSAY_COMMENT: Inhibition of human recombinant PDE4B using cAMP as substrate incubated for 20 mins measured by Kinase Glo reagent based microplate reader assay
MEASURED_METRIC: IC50 (µM)

As a guide, the following entries are already answered.
CCCCCn1c(-c2ccccc2)nc2c(NCCCO)nccc21: 60
OCCCNc1ccnc2c1nc(-c1ccco1)n2C1CCCC1: 2.53
Nc1ccnc2c1nc(-c1ccccc1)n2CCCO: 100
c1coc(-c2nc3c(NCCc4cccs4)ccnc3n2C2CCCC2)c1: 3.25

I. CCCCCn1c(-c2ccccc2)nc2c(NCCc3cccs3)ccnc21
II. CCCCCn1c(-c2ccco2)nc2c(NCCCO)ccnc21
III. CCCCCn1c(-c2ccccc2)nc2c(N)ccnc21
IV. COCCNc1nccc2c1nc(-c1ccco1)n2C1CCCC1
-- ask Put the compounds in ascending order of IC50. Write out the labels following the order that was asked for.
-- reply I, IV, III, II
(I: 7.09 µM, IV: 18.1 µM, III: 29 µM, II: 49.7 µM)

###

- ASSAY_SYSTEM: 3',5'-cyclic-AMP phosphodiesterase 4B (Homo sapiens)
- ASSAY_COMMENT: Inhibition of human recombinant PDE4B using cAMP as substrate incubated for 20 mins measured by Kinase Glo reagent based microplate reader assay
MEASURED_METRIC: IC50 (µM)

Consider the reported IC50 for these compounds:
CCCCCn1c(-c2ccco2)nc2c(N(C)CCCO)nccc21: 3.48
CCCCCn1c(-c2ccco2)nc2c(NCCCOC)ccnc21: 3.53
OCCCNc1nccc2c1nc(-c1ccco1)n2C1CCCC1: 19
CCCCCn1c(-c2ccco2)nc2c(NCCCOC)nccc21: 12.6
CCCCCn1c(-c2ccco2)nc2c(NCc3ccccc3)nccc21: 8.34

P. CCCCCn1c(-c2ccc(OC)cc2)nc2c(N)ccnc21
Q. COCCCNc1ccnc2c1nc(-c1ccco1)n2C1CCCC1
-- ask # query: argmin of IC50 over P and Q Answer by stating the label of the chosen item.
-- reply Q

1. CCCCCn1c(-c2ccco2)nc2c(N)ccnc21
2. CCCCCn1c(-c2ccco2)nc2c(N(C)CCCO)ccnc21
3. COCCNc1ccnc2c1nc(-c1ccco1)n2C1CCCC1
-- ask Please list the entries, largest IC50 first. # format: label list in the order the request specifies
-- reply 1, 2, 3
(1: 39.9 µM, 2: 18 µM, 3: 5.41 µM)
